experiment: chemical genetic growth profiling, strain panel (AID 1159580);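 further: tested at 20 µM; growth read once vehicle control cultures reached saturation at 30 °C; 1 = growth at the plate median or of vehicle wells; lower values mean less growth of the strain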; conditions: S. cerevisiae deletion strains, growth OD, locus YDR392W, strain spt3
Out of some 5,500 compounds screened, about 2,000 (36%) were called active. Another 18% or so got no clear call; they are omitted. No stated cut-off is given here; in the data, active means normalized growth mostly below about 0.91 (no sharp cut-off); inconclusive means no clear call, values can overlap the other calls; inactive means mostly above about 0.92. This is one part of the list.
Outcome (select one): active, inactive

CS(=O)(=O)c1ccc(C2=C(c3ccccc3)C(=O)OC2)cc1 = inactive

Req: Any idea what this test logged for ClC1=C(Cl)C2(Cl)C3C(Cl)C=CC3C1(Cl)C2(Cl)Cl (stereo not given) ?
Resp: inactive

Req: Now this one: COCCc1ccc(OCC(O)CNC(C)C)cc1 (stereo not given)
Resp: inactive

Req: Now the same for `COc1cc(/C=C/C(=O)/C=C(O)/C=C/c2ccc(O)c(OC)c2)ccc1O`
Resp: active

Req: Continue with CC(NCCc1ccc(O)cc1)C(O)c1ccc(O)cc1 (stereo not given)
Resp: active

Req: Let us now turn to `CCOC(=O)C(C)(C)Oc1ccc(Cl)cc1`
Resp: inactive

Req: Please answer likewise for CC(C(=O)O)c1ccc(-c2ccccc2)c(F)c1 (stereo not given)
Resp: inactive

Req: Field entry: `COc1cc2c(cc1OC)Cc1cc(OC)c(OC)cc1Cc1cc(OC)c(OC)cc1C2`
Resp: inactive

Req: Now consider CC(CCc1ccccc1)NC(C)C(O)c1ccc(O)cc1 (stereo not given) .
Resp: inactive

====

experiment: chemical genetic growth profiling, strain panel (AID 1159580); conditions: S. cerevisiae deletion strains, growth OD, locus YJL115W, strain asf1
Hit rate of the full screen: of about 5,500 compounds, about 2,000 (36%) were called active. Inconclusive results (about 18%) are left out. No stated cut-off is given here; in the data, active means normalized growth mostly below about 0.91 (no sharp cut-off); inconclusive means no clear call, values can overlap the other calls; inactive means mostly above about 0.92. The list shows a part of the results.
Please state which outcome applies, choosing from class 1 for active, class 0 for inactive

These recorded examples may help you get a feel for the data.
CC(=O)OCC(=O)[C@@]1(O)CCC2C3CCC4=CC(=O)CC[C@]4(C)C3C(=O)C[C@@]21C (stereo partly drawn) = class 0
COc1cc2c(cc1OC)[C@@H]1C(=O)c3ccc(OC)c(CC=C(C)C)c3O[C@@H]1CO2 = class 0
C[C@H]1CC2C([C@@H](O)C[C@@]3(C)C2CC[C@]3(O)C(=O)CO)[C@@]2(C)C=CC(=O)C=C12 (stereo partly drawn) = class 0
COc1cc2c(cc1OC)C(=O)OC2 = class 0
CN1CCC(=C2c3ccccc3Sc3ccccc32)CC1 = class 0

Req: Please indicate how the test categorized `NCCSSCCN` .
Resp: class 0

Req: Next compound up: `COc1cc2c(cc1OC)Cc1cc(OC)c(OC)cc1Cc1cc(OC)c(OC)cc1C2`
Resp: class 0

Req: What do you have for CC(=O)NC1SCCC1=O (stereo not drawn) ?
Resp: class 0

====

assay: chemical genetic growth profiling, strain panel (AID 1159580);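 further: tested at 20 µM; growth read once vehicle control cultures reached saturation at 30 °C; 1 = growth at the plate median or of vehicle wells; lower values mean less growth of the strain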; details: S. cerevisiae deletion strains, growth OD, locus YDR162C, strain NBP2
Hit rate of the full screen: of about 5,500 compounds, about 2,000 (36%) were called active. Another 18% or so got no clear call; they are omitted. Cut-off read from the data, not from the text of the source: active = normalized growth mostly below about 0.91 (no sharp cut-off); inconclusive = no clear call, values can overlap the other calls; inactive = mostly above about 0.92. This is one part of the list.
Your reply should match one of these outcome classes. active, inactive

Req: Hi, sorry to bother you, what did the test record for `CC(=O)c1c(O)c(C)c(O)c2c1oc1c(C(C)=O)c(O)c(C)c(O)c12` ?
Resp: inactive

Req: What do we get for CC(C)CC(NC(=O)C(Cc1ccccc1)NC(=O)CNC(=O)CNC(=O)C(N)Cc1ccc(O)cc1)C(=O)O (centres undefined) ?
Resp: inactive

Req: Input CC(=O)OCC(=O)[C@@]1(O)CCC2C3CCC4=CC(=O)CC[C@]4(C)C3C(=O)C[C@@]21C (some centres undefined)
Resp: inactive

Req: Now try `COC1=C(OC)C(=O)C(C/C=C(\C)CC/C=C(\C)CC/C=C(\C)CC/C=C(/C)CC/C=C(\C)CC/C=C(\C)CC/C=C(\C)CC/C=C(\C)CC/C=C(\C)CCC=C(C)C)=C(C)C1=O` .
Resp: inactive

Req: Also need CC(=O)OCC(=O)[C@H]1CCC2C3CCC4=CC(=O)CC[C@]4(C)C3CC[C@@]21C (some centres undefined) , thanks.
Resp: active

Req: Can you check CC(=O)C1CCC2C3CC(=O)C4=CC(=O)CCC4(C)C3CCC12C (centres undefined) next?
Resp: inactive

Req: // query: CCC(=O)O[C@H]1CCC2C3CCC4=CC(=O)CC[C@]4(C)C3CC[C@@]21C (some centres undefined)
Resp: active

Req: Further, for CCCCCCCCNC(C)C(O)c1ccc(SC(C)C)cc1 (centres undefined) ?
Resp: active

Req: Okay, and C=C(C)C1CNC(C(=O)O)C1CC(=O)O (centres undefined) ?
Resp: inactive

====

# reported normalized growth; entries follow
test: chemical genetic growth profiling, strain panel (AID 1159580);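 further: tested at 20 µM; growth read once vehicle control cultures reached saturation at 30 °C; 1 = growth at the plate median or of vehicle wells; lower values mean less growth of the strain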; conditions: S. cerevisiae deletion strains, growth OD, locus YDR069C, strain doa4, hits give low values
Screen size: about 5,500 compounds; about 2,000 (36%) were called active. Roughly 18% stayed inconclusive and do not appear here. Some of the results follow.
The reply should be a number, written without any unit.

Field: example entries. Status: answers known.
CC1=C(C/C=C(\C)CCC[C@H](C)CCC[C@H](C)CCCC(C)C)C(=O)c2ccccc2C1=O = 0.975
CC(=O)[C@H]1CCC2C3CCC4=CC(=O)CC[C@]4(C)C3CC[C@@]21C (some centres not stated) = 0.963
C[N+](C)(C)CCOC(N)=O = 1.01
CS(=O)(=O)c1ccc(C2=C(c3ccccc3)C(=O)OC2)cc1 = 0.967
CC(C[N+](C)(C)C)OC(N)=O (configuration not stated) = 1.01
CCC(=O)O[C@H]1CCC2C3CCC4=CC(=O)CC[C@]4(C)C3CC[C@@]21C (some centres not stated) = 0.924
OCCN1C[C@@H](O)[C@@H](O)C(O)C1CO (some centres not stated) = 1.01
O=C1C=CC(=C(c2ccc(O)cc2)c2ccc(O)cc2)C=C1 = 0.952

Req: Returns the measured normalized growth for the input molecule. Input: CC(=O)NC1SCCC1=O (configuration not stated)
Resp: 0.977

Req: Then what about the molecule `CN1CCC(=C2c3ccccc3Sc3ccccc32)CC1` ?
Resp: 1.02

Req: Now the same for `c1ccc(N=Nc2ccccc2)cc1`
Resp: 0.995

Req: Try `CC(=O)OC(C)(C)[C@@H]1Cc2cc3ccc(=O)oc3cc2O1` next.
Resp: 0.962

Req: Then this molecule: `CCC(=O)O[C@H]1[C@H](O[C@@H]2[C@@H](C)[C@H](O[C@H]3C[C@@](C)(OC)[C@@H](O)[C@H](C)O3)[C@@H](C)C(=O)O[C@H](CC)[C@@](C)(O)[C@H](O)[C@@H](C)C(=O)[C@H](C)C[C@@]2(C)O)O[C@H](C)C[C@@H]1N(C)C`
Resp: 1.04

Req: # repeat for CC1CC2C3CCC4=CC(=O)C=C[C@]4(C)[C@@]3(F)[C@@H](O)C[C@]2(C)[C@@]1(O)C(=O)CO (some centres not stated)
Resp: 0.979

Req: What about `CN(C)c1ccc(C(=C2C=CC(=[N+](C)C)C=C2)c2ccc(N(C)C)cc2)cc1` ?
Resp: 0.61

Req: Also `CN1CCC(=C2c3ccccc3CC(=O)c3sccc32)CC1` , if possible.
Resp: 0.954

Req: Consider next the molecule `CCN(CC)CCNC(=O)c1cc(Br)c(N)cc1OC` in the same way.
Resp: 1.01

Req: And what about the molecule `COc1cc2c(cc1OC)C(=O)OC2` ?
Resp: 0.994

Req: Quick one: `CN1CCC(=C2c3ccccc3CCc3sccc32)CC1`
Resp: 0.905

Req: Quick one: `CC(=O)N[C@@H](CC(C)C)C(=O)O`
Resp: 0.971

Req: Could you do the same for CC(=O)O[C@@H]1C[C@@]2(C)C(CC[C@@H]2C(C)=O)C2CCC3=CC(=O)CC[C@]3(C)C21 (some centres not stated) , please?
Resp: 1.02

Req: Also C[C@]12CCC(=O)C=C1CCC1C2CC[C@@]2(C)C1CC[C@@H]2O (some centres not stated) ?
Resp: 0.977

====

assay: chemical genetic growth profiling, strain panel (AID 1159580);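 further: tested at 20 µM; growth read once vehicle control cultures reached saturation at 30 °C; 1 = growth at the plate median or of vehicle wells; lower values mean less growth of the strain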; conditions: S. cerevisiae deletion strains, growth OD, locus YOL078W, strain AVO1, hits give low values
The whole screen tested about 5,500 compounds, of which about 2,000 (36%) were called active. Another 18% or so got no clear call; they are omitted. This is one part of the list.
Readout: normalized growth

Examples from the recorded data:
Cc1nnsc1C(=O)Nc1cc(C(F)(F)F)cc(C(F)(F)F)c1 = 0.951 (inactive)
O=C(CSc1nnnn1-c1ccccc1)c1ccccc1 = 0.941 (inactive)
Cc1nnsc1C(=O)NNc1c(Cl)cccc1Cl = 0.978 (inactive)
Cc1cc(C(=O)NNc2ccc(F)cc2F)no1 = 0.967 (inactive)
COc1cc2c(cc1OC)C(C)N(C(=O)c1sc3ccccc3c1Cl)CC2 (stereo not drawn) = 0.972 (inactive)

Req: Quick check: normalized growth of `COc1ccc(NNC(=O)c2sc3ccccc3c2Cl)cc1` ?
Resp: 0.913 (inactive)

Req: Continue with `Cc1cc(NNC(=O)c2ccccc2Cl)nc2c1c(C)nn2C`
Resp: 0.978 (inactive)

Req: Next record, please: `Cc1cc(Cl)ccc1NNC(=O)c1snnc1C`
Resp: 0.954 (inactive)
